B1: tRNA (parent)
chain: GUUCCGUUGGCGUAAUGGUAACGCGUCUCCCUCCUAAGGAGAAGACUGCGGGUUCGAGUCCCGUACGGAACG

# Variants of: B1
# METHOD NOTES: yeast fitness relative to wild type (ratio to wild type); higher = fitter; tRNA-Arg(CCU), competitive growth, 37 C, YPD
This sample holds only a part of the variants without activity.
READOUT KIND: yeast fitness
Just the number, please, no unit attached.

What yeast fitness value was documented for this variant, A20G A43G A65U ?
0.596

What yeast fitness value was documented for this variant, C4U G48C C66U ?
0.729

What yeast fitness value was documented for this variant, C24G C46U ?
0.654

What yeast fitness value was documented for this variant, U32C C46A ?
0.88

What yeast fitness value was documented for this variant, A21G C49A C62U ?
0.544

What yeast fitness value was documented for this variant, G12A A65U ?
0.861
